System: OCI-AML2;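 also: after 48 h exposure read by CellTiter-Glo luminescence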
Assay: cell viability relative to vehicle control; higher = less cytotoxic
Settings: 10 µM; SRSF2 genotype: P95H/wt
Structures can show the parent of a compound that is named as a salt.
cell viability reference
Give the quantity in %, number only.

The examples below pair each entry with its known result.
[[record]]
compound = "CN1CCC[C@@H]1CCO[C@](C)(c1ccccc1)c1ccc(Cl)cc1 [Clemastine Fumarate]"
tgt = "OCI-AML2"
measured_property = "cell viability"
reported_result = 81.7

[[record]]
compound = "CC1CCC2(OC1)OC1CC3C4CCC5CC(OC6OC(CO)C(O)C(O)C6OC6OC(CO)C(O)C(O)C6O)CCC5(C)C4CCC3(C)C1C2C (stereo unspecified)"
tgt = "OCI-AML2"
measured_property = "cell viability"
reported_result = 0.43

[[record]]
compound = "CCCCC[C@H](O)CC(=O)CCc1ccc(O)c(OC)c1"
tgt = "OCI-AML2"
measured_property = "cell viability"
reported_result = 90.9

[[record]]
compound = "C[C@H](Cn1cnc2c(N)ncnc21)OCP(=O)(O)O"
tgt = "OCI-AML2"
measured_property = "cell viability"
reported_result = 106

[[record]]
compound = "C[C@@H](CC[C@@]1(O)O[C@H]2C[C@H]3[C@@H]4CC[C@@H]5C[C@@H](O[C@@H]6O[C@H](CO)[C@H](O)[C@H](O)[C@H]6O[C@@H]6O[C@H](CO)[C@@H](O)[C@H](O)[C@H]6O)CC[C@]5(C)[C@H]4CC[C@]3(C)[C@H]2[C@@H]1C)CO[C@@H]1O[C@H](CO)[C@@H](O)[C@H](O)[C@H]1O"
tgt = "OCI-AML2"
measured_property = "cell viability"
reported_result = 49.8

[[record]]
compound = "CC(=O)O[C@H]1C(=O)[C@@]2(C)[C@H]([C@H](OC(=O)c3ccccc3)[C@]3(O)C[C@H](OC(=O)[C@H](O)[C@@H](NC(=O)c4ccccc4)c4ccccc4)C(C)=C1C3(C)C)[C@]1(OC(C)=O)CO[C@@H]1C[C@@H]2O [7-Epitaxol]"
tgt = "OCI-AML2"
measured_property = "cell viability"
reported_result = 6.19


Input Cc1ncc(Cl)cc1NCc1ccc(C(=O)N[C@@H](CC2CCCC2)C(=O)NC2CC2)s1 . Output cell viability: 72.9

# cell viability (compound: COc1c(-c2ccc3cc(NS(C)(=O)=O)ccc3c2)cc(-n2ccc(=O)[nH]c2=O)cc1C(C)(C)C ) is 90.5

Sample C[C@@H](Oc1cc(-c2cnn(C3CCNCC3)c2)cnc1N)c1c(Cl)ccc(F)c1Cl ; cell viability observed: 0.4

Measured cell viability of C[C@@H]1O[C@@H](O[C@H]2[C@H](O[C@H]3CC[C@@]4(C)[C@@H](CC[C@]5(C)[C@@H]4CC=C4[C@@H]6CC(C)(C)CC[C@]6(C(=O)O[C@@H]6O[C@H](CO[C@@H]7O[C@H](CO)[C@@H](O)[C@H](O)[C@H]7O)[C@@H](O)[C@H](O)[C@H]6O)CC[C@]45C)[C@]3(C)CO)OC[C@H](O)[C@@H]2O)[C@H](O)[C@H](O[C@@H]2O[C@H](CO)[C@@H](O[C@@H]3O[C@H](CO)[C@@H](O)[C@H](O)[C@H]3O)[C@H](O)[C@H]2O)[C@H]1O : 91.4

Field cell viability (entry Cc1ccc2c(c1)C(=O)C1(O)CCN(c3ccccc3)C1=N2 (single isomer, unassigned; (-)) [(-)-Blebbistatin] ) reads 80.5

Consider C=CC(=O)Nc1cccc(Nc2nc(Nc3ccc(NC4CN(CCF)C4)cc3OC)ncc2C(F)(F)F)c1 . Its measured cell viability is 12.3
